# Tested on: 354836-022-R-J1-PDC multicell spheroid viability;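 further: spheroids exposed to agents for seven days before the viability read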
# experimental_protocol: Anticancer human tumor 354836-022-R-J1-PDC patient-derived head and neck squamous cell carcinoma cell line growth inhibition [PI3K]; active means viability on the fitted dose curve at most 10% of control; inactive means the rest
# test_context: second compound 0.316 µM; first compound 0.1 µM
Reply using exactly one outcome from label 1 for active, label 0 for inactive

Worked examples follow.
[[record]]
compound = "CNC(=O)c1ccc(N2C(=S)N(c3ccc(C#N)c(C(F)(F)F)c3)C(=O)C2(C)C)cc1F + CC(Nc1ccc2c(c1)OCCn1cc(N3C(=O)OCC3C(F)F)nc1-2)C(N)=O"
experimental_system = "354836-022-R-J1-PDC multicell spheroid viability"
group = "label 0"

[[record]]
compound = "Cn1ncnc1[C@H]1c2n[nH]c(=O)c3cc(F)cc(c23)N[C@@H]1c1ccc(F)cc1 + Cc1nc(NC(=O)N2CCCC2C(N)=O)sc1-c1ccnc(C(C)(C)C(F)(F)F)c1"
experimental_system = "354836-022-R-J1-PDC multicell spheroid viability"
group = "label 0"

[[record]]
compound = "CCN1CCN(Cc2ccc(Nc3ncc(F)c(-c4cc(F)c5nc(C)n(C(C)C)c5c4)n3)nc2)CC1 + COc1c(OCCCN2CCOCC2)ccc2c3n(c(=NC(=O)c4cnc(N)nc4)nc12)CCN3"
experimental_system = "354836-022-R-J1-PDC multicell spheroid viability"
group = "label 1"

[[record]]
compound = "CC(Cn1ccc(-c2ccc(C#N)c(Cl)c2)n1)NC(=O)c1cc(C(C)O)[nH]n1 (stereo not drawn) + COc1c(OCCCN2CCOCC2)ccc2c3n(c(=NC(=O)c4cnc(N)nc4)nc12)CCN3"
experimental_system = "354836-022-R-J1-PDC multicell spheroid viability"
group = "label 0"

[[record]]
compound = "C=CC(=O)N1CCN(c2nc(=O)n(-c3c(C)ccnc3C(C)C)c3nc(-c4c(O)cccc4F)c(F)cc23)C(C)C1 (stereo not drawn) + COc1c(OCCCN2CCOCC2)ccc2c3n(c(=NC(=O)c4cnc(N)nc4)nc12)CCN3"
experimental_system = "354836-022-R-J1-PDC multicell spheroid viability"
group = "label 0"

[[record]]
compound = "CC1(C)CCC(CN2CCN(c3ccc(C(=O)NS(=O)(=O)c4ccc(NCC5CCOCC5)c([N+](=O)[O-])c4)c(Oc4cnc5[nH]ccc5c4)c3)CC2)=C(c2ccc(Cl)cc2)C1 + CC(Nc1ncnc2nc[nH]c12)c1cc2cccc(Cl)c2c(=O)n1-c1ccccc1"
experimental_system = "354836-022-R-J1-PDC multicell spheroid viability"
group = "label 0"

[[record]]
compound = "CC1(C)CCC(Nc2ncc(C(F)(F)F)c(-c3c[nH]c4c(P(C)(C)=O)c(C#N)ccc34)n2)CN1 (stereo not drawn) + CC(Nc1ccc2c(c1)OCCn1cc(N3C(=O)OCC3C(F)F)nc1-2)C(N)=O"
experimental_system = "354836-022-R-J1-PDC multicell spheroid viability"
group = "label 0"

[[record]]
compound = "Cn1nccc1Nc1nccc(-c2ccn(C(CO)c3ccc(Cl)c(F)c3)c(=O)c2)n1 (stereo not drawn) + COc1c(OCCCN2CCOCC2)ccc2c3n(c(=NC(=O)c4cnc(N)nc4)nc12)CCN3"
experimental_system = "354836-022-R-J1-PDC multicell spheroid viability"
group = "label 0"

[[record]]
compound = "C[C@@H](NC(=O)c1ncnc(N)c1Cl)c1ncc(C(=O)Nc2cc(C(F)(F)F)c(Cl)cn2)s1 + COc1c(OCCCN2CCOCC2)ccc2c3n(c(=NC(=O)c4cnc(N)nc4)nc12)CCN3"
experimental_system = "354836-022-R-J1-PDC multicell spheroid viability"
group = "label 0"

[[record]]
compound = "C[C@@H](NC(=O)c1ncnc(N)c1Cl)c1ncc(C(=O)Nc2cc(C(F)(F)F)c(Cl)cn2)s1 + CC(Nc1ccc2c(c1)OCCn1cc(N3C(=O)OCC3C(F)F)nc1-2)C(N)=O"
experimental_system = "354836-022-R-J1-PDC multicell spheroid viability"
group = "label 0"


### Prompt Which outcome was entered for the compound C[C@@H](NC(=O)c1ncnc(N)c1Cl)c1ncc(C(=O)Nc2cc(C(F)(F)F)c(Cl)cn2)s1 + CC(Nc1ncnc2nc[nH]c12)c1cc2cccc(Cl)c2c(=O)n1-c1ccccc1 in this test?
### Response label 0

### Prompt Which outcome was entered for the compound Cn1nccc1Nc1nccc(-c2ccn(C(CO)c3ccc(Cl)c(F)c3)c(=O)c2)n1 (stereo not drawn) + CC(Nc1ncnc2nc[nH]c12)c1cc2cccc(Cl)c2c(=O)n1-c1ccccc1 in this test?
### Response label 0

### Prompt Which outcome was entered for the compound CC(=O)c1c(C)c2cnc(Nc3ccc(N4CCNCC4)cn3)nc2n(C2CCCC2)c1=O + COc1c(OCCCN2CCOCC2)ccc2c3n(c(=NC(=O)c4cnc(N)nc4)nc12)CCN3 in this test?
### Response label 0

### Prompt Which outcome was entered for the compound C=CC(=O)N1CCN(c2nc(=O)n(-c3c(C)ccnc3C(C)C)c3nc(-c4c(O)cccc4F)c(F)cc23)C(C)C1 (stereo not drawn) + CC(Nc1ccc2c(c1)OCCn1cc(N3C(=O)OCC3C(F)F)nc1-2)C(N)=O in this test?
### Response label 0

Taken from PubChem BioAssay AID1963981.
